Test system: HCT-116 colon
assay_method_text: NCI-60 one-dose screen, 48 h
particulars: 10 µM unless noted
About 83,000 compounds went through this panel and 20% of them were active in at least one assay; those are over-represented in the sample as a whole. Calls of active or inactive are those of the source. Rule for the calls: active = growth percent below 10; inactive = the rest.
Respond with a class label; see yes for active, no for inactive

Q: Per the records of this test, what outcome belongs to `Cc1ccc(S(=O)(=O)c2nc(S(=O)(=O)c3ccc(C)cc3)c(N3CCC(O)CC3)s2)cc1` ?
A: no

Q: # fetch the recorded call for `COc1ccc(C(=O)/C=C/c2ccc(Oc3nc(Nc4ccc(F)cc4)nc(N(C)C)n3)c(OC)c2)cc1` here
A: yes

Q: For `COc1ccc(NC(=O)Nc2ccc(OCc3ccc(F)cc3)cc2)cc1` , which call appears in the assay record?
A: no

Q: State the result this test recorded for C=C1CC[C@@H]2[C@]3(C)COC(c4cn[nH]c4-c4cccc(Cl)c4)O[C@@H]3CC[C@@]2(C)[C@@H]1C/C=C1/C(=O)OCC1O (stereo partly specified) .
A: yes

Q: Field: outcome | Entry: CCN1C(=O)N(CC)C2NNC(Sc3c(C(=O)O)c4ccccc4n(C4CCCC4)c3=O)=NC21 (stereo unspecified)
A: yes
